# assay explanation: yeast display, Sf9 membrane polyspecificity reagent, FACS + sequencing; frameworks hold sequencing errors
quantity measured: polyreactivity (PSR sort gate)

Worked cases, answers included:
{"sequence data": "QVQLVESGGGLVQAGGSLRLSCAASGSIFTAYAMGWYRQAPGKEMELVAAITYNGGSTYYADSVKGRFTISRDNAKNTVYLQMNSLKPEDTAVYYCAARYWFYYDLYDYWGQGTQVTVSS", "result": "low polyreactivity"}
{"sequence data": "QVQLVESGGGLVQAGGSLRLSCSASGTTFRYNAMGRYRQAPGKERQLVAAITSGGTTNYADSVKGRFTISRDNAKNTVYLQMNSLKPEDTAVYYCAKKRPGFLRYGSIGEFQYDYWGQGTQVTVSS", "result": "low polyreactivity"}
{"sequence data": "QVQLVESGGGLVQAGGSLRLSCAASGRTIWRYGMGWYRQAPGKERELVAAITDSGDSTYYADSVKGRFTISRDNAKNTVYLQMNSLKPEDTAVYYCAASDVVFALNGYYPGEDDYWGQGTQVTVSS", "result": "low polyreactivity"}
{"sequence data": "QVQLVESGGGLVQAGGRLRLSCAASGISFDWYAMGWYRQAPGKERELVAAITVGASTYADSVKGRFTISRDNAKNTDYLQMNSLIPEDTAVYYCTFPVFVDYGFYTIGHDYWGQGTQVTVSS", "result": "low polyreactivity"}
{"sequence data": "QVQLVESGGGLVQAGGSLRLSCAASGLIFDDYAMGWYRQAPGKERELVAAISWSDGTTYYADSVKGRFTISRDNAKNTVYLQMNSLKTEDTAVYYCAAEEVSGWEYDYWGQGTQVTVSS", "result": "high polyreactivity"}
{"sequence data": "QVQLVESGGGLVQAGGSLRLSCAASGNIFIHYAMGWYRQAPGKERELVAAITWSGGSTYYADSVKGRFTISRDNAKNTVYLQMNSLTPEDTAVSYCNSVSKYGPADGYGDYWGQGTQVTVSS", "result": "high polyreactivity"}
{"sequence data": "QVQLVESGGGLVQAGGSLRLSCAASGITFRFNAMGWYRQAPGKEREFVAAITYSGDSTYYADSVKGRFTISRDNAKNTVYLQMNSLKPEDTAVYYCAADYYAISRRIFYYWGQGTQVTVSS", "result": "low polyreactivity"}
{"sequence data": "QVQLVESGGGLVQAGGSLRLSCAASGSIFAYYTMGWSRQAPGKERELVAAITSGGSTNYADSVKGRFTISRDNAKNTVYLQMNSLKPEDTAVYYCAVQGSRYSYRYGYRFRTMDYWGQGTQVTVSS", "result": "high polyreactivity"}

Then this sequence:
Record QVQLVESGGGLVQAGGSLRLSCAASGSTFGKNAMGWYRQAPGKERELVAAITRRGGSTNYADSVKGRFTISRDNAKNTVYLQINSLKPEDTAVYYCAASWGRTSSKPFDYWGQGTQVTVSS , field polyreactivity (PSR sort gate): high polyreactivity

----------
# assay explanation: yeast display, Sf9 membrane polyspecificity reagent, FACS + sequencing; frameworks hold sequencing errors
quantity measured: polyreactivity (PSR sort gate)

Worked cases, answers included:
{"sequence data": "QVQLVESGGGLVQAGGSLPLSCAASGFIFPGYAMGWYRQAPGKERELVAVISSRGGSTKYADSVKGRFTISRDNANYSVYLQMNSLNPEDTAVYYCAAARAPRKYDSWGQGTQVTVSS", "polyreactivity (PSR sort gate)": "high polyreactivity"}
{"sequence data": "QVQLVESGGGIVQAGGSLRLSCAASGLIFRRYTMGWYRQAPGKERELVAAIRNSGSSTDYADSVKGRFTISRDNAKNTVYLQMNSLKPEDTAVYYCAKRSARKLTYDSWGQGTQVTVSS", "polyreactivity (PSR sort gate)": "low polyreactivity"}
{"sequence data": "QVQLVESGGGLVQAGGSLRLSCAASGFTFAVYDMGWYRQAPGKERELVAVISSVGSTNYADSVKGRFTISRDNAKNTVYLQMNSLKPEDTAVYYCNAVYWYRDRWYQTGYGYWGQGTQVTVSS", "polyreactivity (PSR sort gate)": "high polyreactivity"}
{"sequence data": "QVQLEDSGGGLVQAGGSLRLSCAASGRIFGYNAMGWYRQAPGKERELVAAITTSGGSTYYADSVKGRFTISRDNAKNTVYLQMNSLKPEDTAVYYCARDSLQVFYPYASDDYWGQGTQVTVSS", "polyreactivity (PSR sort gate)": "low polyreactivity"}
{"sequence data": "QVQLVESGGGLVQAGGSLRLSCAASGRIFFKYAMGWYRQAPGKERELVAAISSSGGRTSYADSVKGRFTISRDNAKNTVYLQMNSLKPEDTAVYYCNVKPSARGSPLYDYWGQGTQVTVSS", "polyreactivity (PSR sort gate)": "high polyreactivity"}

Record QVQLVESGGGLVQAGGSLRLSCAASGFTFAYYAMGSYRQAPGKERELVAAIRKSGATTYYADSVKGRFTISRDNSKNTVYLQMISLKPEDTAVYYCNAVVKSSSRGSIAHPGYDYWGQGTQVTVSS , field polyreactivity (PSR sort gate): high polyreactivity

Record QVHLVESGGGLVQAGGSLRLSCAACGLTFTHYTMGWYRQAPGKERELVAAITTSGGSTYYADSLKGRFTISRDNAKKTVYLQLNSLKPEDTPVYYCAADLGGNSRLDYWGQGTQETVSS , field polyreactivity (PSR sort gate): high polyreactivity

Record QVHLVESGGGLVQAGGSLRLSCAAAGSTSARYAMGWYRQPPGKERELVATITRSGTTKYADSVKGRFTISRDNAKNTVYLQMNSLKPEDTAVYYCNTDTYFPLYDYWGQGTQVTVSS , field polyreactivity (PSR sort gate): low polyreactivity

Record QVQLVESGGGLVQAGGSLRLSCAASGLTFIYYAMGWYRQAPGKERELVAAISVSGGSTYYADSVKGRFTISRDNAKNTVYLQMNSLKQEDTAVYYCAADWFVHKPRYQYSFDYWGQGTQVTVSS , field polyreactivity (PSR sort gate): low polyreactivity

Record QDQLVESVGGLVQAGGSLRLSCAASGSTISLYAMGWYRQAPGKERELVAAISQSGSRTYFADSVKGRFTISRDNAKNTVYLQMISLKQEDTAVYYCAAYSPQTYLRWTYGYWGQGTQVTVSS , field polyreactivity (PSR sort gate): high polyreactivity

Record QVQLVESGGGLVQAGGSLRLSCAASGRIFLWNAMGWYRQAPGKERELVAGIRWSTGSTYYADSVKGRFTISRDNAKNTVYLQKNSLKREDTAVYYCNARSFATGSKVPARGYWGQGTQVTVSS , field polyreactivity (PSR sort gate): high polyreactivity

Record QVQLVESGGGLVQSGGSLRLSCAASGYIVRNAMGWYRQAPVKERELVAAITWSGGSTYYADSVKGRFTISRDNAKNTVYLQMNSLKPEDTAVYYCNARRNVRQTFGYEYWGQGTQVTVSS , field polyreactivity (PSR sort gate): high polyreactivity

Record QVQLVESGGGLVQAGGRLRLSCAASGIILYGYAMGWYRQAPGKARELVAAITWSGGSTYYADSVKGRFTISRDNAKNTVYLQMNSLKPEDTAVYYCAVDVHTSADASLPQEYDYWGQGTQVTVSS , field polyreactivity (PSR sort gate): low polyreactivity

Source listed as the nanobody polyreactivity screen of Harvey et al. (2022).
